System: Echinochloa crus-galli (ECHCG)
Experiment: Glasshouse assay for herbicidal activity, pre-/post-emergence (percentage phytotoxicity)
Type: in vivo
Settings: Echinochloa crus-galli, pre-emergence, 480 h, Rate 250 g/ha; pre-emergence; visual assessment 20 DAA; 100%=total damage, 0%=no damage; read-out: Pre-emergence herbicidal activity (percentage phytotoxicity), ECHCG PRE
Measured Metric: pest or weed control at 250 g/ha

>  <Molecule>
Cc1cc(C)c(C2C(=O)CC(CCNc3ccc(C#N)cn3)C2=O)c(C)c1 (stereo not shown)

>  <Target System>
Echinochloa crus-galli (ECHCG)

>  <Recorded Result>
100%

$$$$
>  <Molecule>
Cc1cc(C)c(C2C(=O)CC(CCNC(=O)NC(=O)c3ccc(C(F)(F)F)cc3)C2=O)c(C)c1 (stereo not shown)

>  <Target System>
Echinochloa crus-galli (ECHCG)

>  <Recorded Result>
0%

$$$$
>  <Molecule>
Cc1cc(C)c(C2C(=O)CC(CCNC(=O)Nc3cc(C(C)(C)C)on3)C2=O)c(C)c1 (stereo not shown)

>  <Target System>
Echinochloa crus-galli (ECHCG)

>  <Recorded Result>
70%

$$$$
>  <Molecule>
CONC(=O)NCCC1CC(=O)C(c2c(C)cc(C)cc2C)C1=O (stereo not shown)

>  <Target System>
Echinochloa crus-galli (ECHCG)

>  <Recorded Result>
60%

$$$$
>  <Molecule>
Cc1cc(C)c(C2C(=O)CC(CCNS(=O)(=O)c3ccc(Cl)c(Cl)c3)C2=O)c(C)c1 (stereo not shown)

>  <Target System>
Echinochloa crus-galli (ECHCG)

>  <Recorded Result>
20%

$$$$
>  <Molecule>
Cc1cc(C)c(C2C(=O)CC(CCNC(=O)N(C)Cc3ccccc3)C2=O)c(C)c1 (stereo not shown)

>  <Target System>
Echinochloa crus-galli (ECHCG)

>  <Recorded Result>
0%

$$$$
>  <Molecule>
Cc1cc(C)c(C2C(=O)CC(CCNc3ccc([N+](=O)[O-])cn3)C2=O)c(C)c1 (stereo not shown)

>  <Target System>
Echinochloa crus-galli (ECHCG)

>  <Recorded Result>
100%

$$$$
>  <Molecule>
Cc1cc(C)c(C2C(=O)CC(CCN(C)C(=O)Nc3ccccn3)C2=O)c(C)c1 (stereo not shown)

>  <Target System>
Echinochloa crus-galli (ECHCG)

>  <Recorded Result>
10%

$$$$
>  <Molecule>
Cc1cc(C)c(C2C(=O)CC(CCNC(=O)NC(=O)c3ccccc3C#N)C2=O)c(C)c1 (stereo not shown)

>  <Target System>
Echinochloa crus-galli (ECHCG)

>  <Recorded Result>
30%

$$$$
>  <Molecule>
CC#Cc1cc(C)c(C2C(=O)CC(CCNc3ccc(C#N)cn3)C2=O)c(C)c1 (stereo not shown)

>  <Target System>
Echinochloa crus-galli (ECHCG)

>  <Recorded Result>
100%

$$$$
>  <Molecule>
CCS(=O)(=O)NCCC1CC(=O)C(c2c(C)cc(C)cc2C)C1=O (stereo not shown)

>  <Target System>
Echinochloa crus-galli (ECHCG)

>  <Recorded Result>
70%

$$$$
>  <Molecule>
Cc1cc(-n2cc(Cl)cn2)cc(C)c1C1C(=O)CC(CCNc2ncc(C(F)(F)F)cc2F)C1=O (stereo not shown)

>  <Target System>
Echinochloa crus-galli (ECHCG)

>  <Recorded Result>
90%

$$$$
>  <Molecule>
Cc1cc(C)c(C2C(=O)CC(CCNC(=O)NC(=O)c3ccccc3F)C2=O)c(C)c1 (stereo not shown)

>  <Target System>
Echinochloa crus-galli (ECHCG)

>  <Recorded Result>
80%

$$$$
>  <Molecule>
Cc1cc(C)c(C2C(=O)CC(CCNC(=O)Nc3ccccc3)C2=O)c(C)c1 (stereo not shown)

>  <Target System>
Echinochloa crus-galli (ECHCG)

>  <Recorded Result>
80%

$$$$
>  <Molecule>
Cc1cc(C)c(C2C(=O)CC(CCNC(=O)NC(=O)c3cc(F)ccc3C(F)(F)F)C2=O)c(C)c1 (stereo not shown)

>  <Target System>
Echinochloa crus-galli (ECHCG)

>  <Recorded Result>
70%

$$$$
>  <Molecule>
Cc1cc(-n2cc(Cl)cn2)cc(C)c1C1C(=O)CC(CCNC(=O)Nc2ncccn2)C1=O.Cl (stereo not shown)

>  <Target System>
Echinochloa crus-galli (ECHCG)

>  <Recorded Result>
80%

$$$$

---

Overview of recorded pest or weed control at 250 g/ha for various compounds
Test system: Echinochloa crus-galli (ECHCG)
Assay: Glasshouse assay for herbicidal activity, pre-/post-emergence (percentage phytotoxicity)
Format: in vivo
Conditions: Echinochloa crus-galli, pre-emergence, 480 h, Rate 250 g/ha; pre-emergence; visual assessment 20 DAA; 100%=total damage, 0%=no damage; read-out: Pre-emergence herbicidal activity (percentage phytotoxicity), ECHCG PRE
Procedure: Seeds of a variety of monocotyledonous and dicotyledonous test plants are sown in standard soil in pots. […] 15 days after application of the test herbicide (15DAA) (for post-emergence), and 20 days after application of the test herbicide (20DAA) (for pre-emergence), the test plants are evaluated visually, and an assessed percentage phytotoxicity score is given for each herbicidal application on each plant species (with 100%=total damage to plant; 0%=no damage to plant). […]
Measured Metric: pest or weed control at 250 g/ha (%)

>  <Compound>
Cc1cc(C)c(C2C(=O)CC(CCNc3nc4ccc(Cl)cc4o3)C2=O)c(C)c1.Cl (centres unmarked)

>  <Measured Metric>
pest or weed control at 250 g/ha

>  <Recorded Result>
80

$$$$
>  <Compound>
Cc1cc(C)c(C2C(=O)CC(CCNC(=O)NC(=O)c3ccc(F)cc3F)C2=O)c(C)c1 (centres unmarked)

>  <Measured Metric>
pest or weed control at 250 g/ha

>  <Recorded Result>
100

$$$$
>  <Compound>
Cc1cc(-n2cc(Cl)cn2)cc(C)c1C1C(=O)CC(CCNC(=O)N(C)c2ccccn2)C1=O (centres unmarked)

>  <Measured Metric>
pest or weed control at 250 g/ha

>  <Recorded Result>
100

$$$$
>  <Compound>
Cc1cc(C)c(C2C(=O)CC(CCNC(=O)NC(=O)c3cccc(C(F)(F)F)c3)C2=O)c(C)c1 (centres unmarked)

>  <Measured Metric>
pest or weed control at 250 g/ha

>  <Recorded Result>
10

$$$$
>  <Compound>
Cc1cc(C)c(C2C(=O)CC(CCNC(=O)NC(=O)c3ccc(Cl)c(Cl)c3)C2=O)c(C)c1 (centres unmarked)

>  <Measured Metric>
pest or weed control at 250 g/ha

>  <Recorded Result>
10

$$$$

---

Below, each entry is listed alongside its reported pest or weed control at 250 g/ha.
Tested on: Echinochloa crus-galli (ECHCG)
Test: Glasshouse assay for herbicidal activity, pre-/post-emergence (percentage phytotoxicity)
Format: in vivo
Conditions: Echinochloa crus-galli, post-emergence, 360 h, Rate 250 g/ha; post-emergence; visual assessment 15 DAA; 100%=total damage, 0%=no damage; read-out: Post-emergence herbicidal activity (percentage phytotoxicity), ECHCG POST

>  <Compound>
Cc1cc(C)c(C2C(=O)CC(CCNC(=O)NC(=O)c3ccccc3Cl)C2=O)c(C)c1 (centres unmarked) [Compound A49]

>  <pest or weed control at 250 g/ha>
100%

$$$$
>  <Compound>
Cc1cc(C)c(C2C(=O)CC(CCNc3ncc(C(F)(F)F)cc3Cl)C2=O)c(C)c1 (centres unmarked) [Compound A36]

>  <pest or weed control at 250 g/ha>
90%

$$$$
>  <Compound>
Cc1cc(C)c(C2C(=O)CC(CCNC(=O)N(C)c3ccccn3)C2=O)c(C)c1 (centres unmarked) [Compound A11]

>  <pest or weed control at 250 g/ha>
90%

$$$$
>  <Compound>
Cc1cc(C)c(C2C(=O)C[C@H](CCNC(=O)C3=NOC(C)(C)C3)C2=O)c(C)c1 (some centres unmarked) [Compound A103]

>  <pest or weed control at 250 g/ha>
70%

$$$$
>  <Compound>
Cc1cc(C)c(C2C(=O)CC(CCNC(=O)NC(=O)c3ccc(Cl)c(F)c3)C2=O)c(C)c1 (centres unmarked) [Compound A58]

>  <pest or weed control at 250 g/ha>
80%

$$$$
>  <Compound>
Cc1cc(-n2cc(Cl)cn2)cc(C)c1C1C(=O)CC(CCNC(=O)N(C)c2ccccn2)C1=O (centres unmarked) [Compound A20]

>  <pest or weed control at 250 g/ha>
100%

$$$$
>  <Compound>
Cc1cc(C)c(C2C(=O)CC(CCNC(=O)N(C)C(C)(C)C)C2=O)c(C)c1 (centres unmarked) [Compound A14]

>  <pest or weed control at 250 g/ha>
100%

$$$$
>  <Compound>
CC#Cc1cc(C)c(C2C(=O)CC(CCNc3ccc(C(F)(F)F)cn3)C2=O)c(C)c1 (centres unmarked) [Compound A113]

>  <pest or weed control at 250 g/ha>
100%

$$$$

---

System: Echinochloa crus-galli (ECHCG)
Assay: Glasshouse assay for herbicidal activity, pre-/post-emergence (percentage phytotoxicity)
Type: in vivo
Conditions: Echinochloa crus-galli, post-emergence, 360 h, Rate 250 g/ha; post-emergence; visual assessment 15 DAA; 100%=total damage, 0%=no damage; read-out: Post-emergence herbicidal activity (percentage phytotoxicity), ECHCG POST
Protocol: Seeds of a variety of monocotyledonous and dicotyledonous test plants are sown in standard soil in pots. […] 15 days after application of the test herbicide (15DAA) (for post-emergence), and 20 days after application of the test herbicide (20DAA) (for pre-emergence), the test plants are evaluated visually, and an assessed percentage phytotoxicity score is given for each herbicidal application on each plant species (with 100%=total damage to plant; 0%=no damage to plant). […]
This listing pairs compounds with measured pest or weed control at 250 g/ha.
Measured Metric: pest or weed control at 250 g/ha (%)

>  <Compound>
Cc1cc(C)c(C2C(=O)CC(CCNC(=O)NC(C)(C)C)C2=O)c(C)c1 (stereo not shown)

>  <Target System>
Echinochloa crus-galli (ECHCG)

>  <Recorded Result>
100

$$$$
>  <Compound>
Cc1cc(OCC(F)(F)F)cc(C)c1C1C(=O)CC(CCNC(=O)C2=NOC(C)(C)C2)C1=O (stereo not shown)

>  <Target System>
Echinochloa crus-galli (ECHCG)

>  <Recorded Result>
100

$$$$
>  <Compound>
Cc1cc(C)c(C2C(=O)CC(CCNS(=O)(=O)c3ccc(Cl)cc3)C2=O)c(C)c1 (stereo not shown)

>  <Target System>
Echinochloa crus-galli (ECHCG)

>  <Recorded Result>
60

$$$$
>  <Compound>
Cc1cc(C)c(C2C(=O)CC(CCNS(=O)(=O)c3ccccc3C(F)(F)F)C2=O)c(C)c1 (stereo not shown)

>  <Target System>
Echinochloa crus-galli (ECHCG)

>  <Recorded Result>
30

$$$$
